Could you please report measured MIC for the items listed next?
- System: S. aureus 2552
- ASSAY_PROTOCOL: Test C cross resistance antibacterial assay (MIC)
- Format: cell-based
- SETTINGS: Staphylococcus aureus, 2552; upregulated norA pump; read-out: Minimum Inhibitory Concentrations, S. aureus 2552
One number for each entry, in µg/mL.

Provide the reported MIC of each entry below, same order.
1. Cc1c(N2CC[C@@H](C3(N)CC3)C2)c(F)cn2c(=O)n(N)c(=O)c(C3CC3)c12
2. Cc1c(N2CC[C@@H]([C@H](C)N)C2)c(F)cn2c(=O)n(N)c(=O)c(C3CC3)c12.Cl
3. CN[C@@H](C)[C@@H]1CCN(c2c(F)cn3c(=O)n(N)c(=O)c(C4CC4)c3c2C)C1
4. Cc1c(N2CCC(C(C)O)C2)c(F)cn2c(=O)n(N)c(=O)c(C3CC3)c12 (stereo not shown)

OUT:
1. 0.06
2. 0.25
3. 0.5
4. 1

----------
Structures can show the parent of a compound that is named as a salt.
Could you please report measured melting point for the items listed next?

Some compounds with recorded melting point:
Cc1c(N2CCC(N)C2)c(F)cn2c(=O)n(N)c(=O)c(C3CC3)c12.Cl (stereo not shown): 246 to 248 °C
Cc1c(N2CC[C@@H]([C@@H](C)N)C2)c(F)cn2c(=O)n(N)c(=O)c(C3CC3)c12.Cl: 218 to 221 °C
Cc1c(N2CC[C@@H]([C@H](C)N)C2)c(F)cn2c(=O)n(N)c(=O)c(C3CC3)c12.Cl: 218 to 220 °C
Cc1c(N2CCCC2)c(F)cn2c(=O)n(N)c(=O)c(C3CC3)c12: 202 to 204 °C
Cc1c(N2CC(C)C(C(C)N)C2)c(F)cn2c(=O)n(N)c(=O)c(C3CC3)c12.Cl (stereo not shown): 238 to 240 °C
Cc1c(N2CCC(C(C)O)C2)c(F)cn2c(=O)n(N)c(=O)c(C3CC3)c12 (stereo not shown): 172 to 174 °C

Attention now turns to another entry.
IN: I am curious: what melting point value has been reported for Cc1c(N2CC(C(C)N)C(C)(C)C2)c(F)cn2c(=O)n(N)c(=O)c(C3CC3)c12 (stereo not shown) (as salt: hydrochloride) ?
OUT: 238 to 240 °C
